Tested on: cells from the thymus of normal BALB/c mice (T-cell proliferation)
protocol_description: comitogen-induced thymocyte proliferation procedure (LAF)
Type: cell-based
recorded_conditions: BALB/c mouse thymocytes, PHA and IL-1, 72 hours, tritiated thymidine last six hours; read-out: LAF IC50
Reported values of pIC50 for individual entries
Please report pIC50 as the negative decimal logarithm of the molar concentration, giving only the number.

# pIC50 measured on cells from the thymus of normal BALB/c mice (T-cell proliferation) for item CO[C@H]1C[C@@H]2CC[C@@H](C)[C@@](O)(O2)C(=O)C(=O)N2CCCC[C@H]2C(=O)O[C@H]([C@H](C)C[C@@H]2CCC(=NO)[C@H](OC)C2)CC(=O)[C@H](C)/C=C(\C)[C@@H](O)[C@@H](OC)C(=O)[C@H](C)C[C@H](C)/C=C/C=C/C=C/1C [Example 2, 42-Deoxo-42-(hydroxyimino)rapamycin] = 8.41
